Origin of values: ChEMBL document CHEMBL1201861

Please respond with reported IC50 for every item in the list.
Test system: KALS-1;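 further: growth inhibition of KALS-1 cells, determined with a cell viability assay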
test: cells
Format: functional, cell-based, Homo sapiens
cond: Homo sapiens, KALS-1
Description: SANGER: Inhibition of human KALS-1 cell growth in a cell viability assay.

Summary line: O=C(O)c1ccc(-c2c[nH]c3ncc(-c4ccccc4)cc23)cc1C1CCCC1 , KALS-1, reported IC50 = > 16000 nM

Summary line: COc1cc2ncn(-c3cc(OCc4ccccc4C(F)(F)F)c(C(N)=O)s3)c2cc1OC [GW843682X] , KALS-1, reported IC50 = 22.5 nM

Summary line: CC(C)c1ccccc1Cc1cc(C(=O)Nc2ccc(S(=O)(=O)c3ccccc3C(C)(C)C)cc2)c(O)c(O)c1O , KALS-1, reported IC50 = 253 nM

Summary line: Cc1cn(-c2cc(NC(=O)c3ccc(C)c(Nc4nccc(-c5cccnc5)n4)c3)cc(C(F)(F)F)c2)cn1 , KALS-1, reported IC50 = > 2000 nM

----------
Tested on: NCI-H2122;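 further: growth inhibition of the cells, read out with a cell viability assay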
test: cells
Format: functional, cell-based, Homo sapiens
cond: Homo sapiens, NCI-H2122
Description: SANGER: Inhibition of human NCI-H2122 cell growth in a cell viability assay.
recordedEndpoint: IC50

Summary line: CC1(C)CNc2cc(NC(=O)c3cccnc3NCc3ccncc3)ccc21 , NCI-H2122, reported IC50 = > 2000 nM

Summary line: Nc1cccc2c1CN(C1CCC(=O)NC1=O)C2=O (stereo not given) [LENALIDOMIDE] , NCI-H2122, reported IC50 = > 5000 nM

Summary line: C=C(c1ccc(C(=O)O)cc1)c1cc2c(cc1C)C(C)(C)CCC2(C)C , NCI-H2122, reported IC50 = 4940 nM

Summary line: COc1cc2c(Nc3ccc(NC(=O)c4ccccc4)cc3)ncnc2cc1OCCCN1CCOCC1 , NCI-H2122, reported IC50 = > 4000 nM

Summary line: CO[C@H]1C[C@@H]2CC[C@@H](C)[C@@](O)(O2)C(=O)C(=O)N2CCCC[C@H]2C(=O)O[C@H]([C@H](C)C[C@@H]2CC[C@@H](OC(=O)C(C)(CO)CO)[C@H](OC)C2)CC(=O)[C@H](C)/C=C(\C)[C@@H](O)[C@@H](OC)C(=O)[C@H](C)C[C@H](C)/C=C/C=C/C=C/1C , NCI-H2122, reported IC50 = > 200 nM

Summary line: Cn1cnc2c(F)c(Nc3ccc(Br)cc3Cl)c(C(=O)NOCCO)cc21 , NCI-H2122, reported IC50 = > 4000 nM

Summary line: CC(C)c1ccccc1Cc1cc(C(=O)Nc2ccc(S(=O)(=O)c3ccccc3C(C)(C)C)cc2)c(O)c(O)c1O , NCI-H2122, reported IC50 = 538 nM

Summary line: N#Cc1c(O)c2c(-c3ccc(-c4ccccc4O)cc3)csc2[nH]c1=O , NCI-H2122, reported IC50 = > 1020 nM

Summary line: Nc1ccn([C@@H]2O[C@H](CO)[C@@H](O)C2(F)F)c(=O)n1 , NCI-H2122, reported IC50 = < 4 nM

Summary line: COc1cccc2c1C(=O)c1c(O)c3c(c(O)c1C2=O)C[C@@](O)(C(=O)CO)C[C@@H]3O[C@H]1C[C@H](N)[C@H](O)[C@H](C)O1 , NCI-H2122, reported IC50 = 37.9 nM

----------
System: EOL1;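 further: growth inhibition of EoL-1 cells, read out by a cell viability assay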
test: cells
Assay type: functional, cell-based, Homo sapiens
cond: Homo sapiens, EOL1
Description: SANGER: Inhibition of human EoL-1-cell cell growth in a cell viability assay.
Please respond with reported pIC50 for every item in the list.
For clarity, pIC50 is expressed as the negative log10 of concentration in mol/L.

Input CO[C@H]1C[C@@H]2CC[C@@H](C)[C@@](O)(O2)C(=O)C(=O)N2CCCC[C@H]2C(=O)O[C@H]([C@H](C)C[C@@H]2CC[C@@H](OC(=O)C(C)(CO)CO)[C@H](OC)C2)CC(=O)[C@H](C)/C=C(\C)[C@@H](O)[C@@H](OC)C(=O)[C@H](C)C[C@H](C)/C=C/C=C/C=C/1C [TEMSIROLIMUS] . Output pIC50: 7.79

Input CC(C)CCN1c2nc(Nc3cc(F)c(O)c(F)c3)ncc2N(C)C(=O)C1C (configuration not stated) . Output pIC50: 5.99

Input Nc1cccc2c1CN(C1CCC(=O)NC1=O)C2=O (configuration not stated) [LENALIDOMIDE] . Output pIC50: 5.39

----------
Tested on: EW-11
test: cells
Format: functional, cell-based, Homo sapiens
cond: ew-11
Description: SANGER: Inhibition of human EW-11 cell growth in a cell viability assay.
recordedEndpoint: pIC50
For clarity, pIC50 is expressed as the negative log10 of concentration in mol/L.

Summary line: BLEOMYCIN , EW-11, reported pIC50 = 5.19

----------
System: Kasumi 1
test: cells
Type: functional, cell-based, Homo sapiens
cond: Homo sapiens, Kasumi 1
Description: SANGER: Inhibition of human KASUMI-1 cell growth in a cell viability assay.
Please respond with reported IC50 for every item in the list.

Input COc1cc(-c2nn([C@H]3CC[C@H](N4CCN(C(C)=O)CC4)CC3)c3ncnc(N)c23)ccc1NC(=O)c1cc2ccccc2n1C . Output IC50: > 5120 nM

Input Cc1cn(-c2cc(NC(=O)c3ccc(C)c(Nc4nccc(-c5cccnc5)n4)c3)cc(C(F)(F)F)c2)cn1 . Output IC50: 24.1 nM

Input Cc1ccc(-c2c(C(=O)CCl)n(CCCO)c3ncnc(N)c23)cc1 . Output IC50: > 4000 nM

Input OCCCNc1cc(-c2ccnc(Nc3cccc(Cl)c3)n2)ccn1 . Output IC50: > 256 nM

Input N#Cc1c(O)c2c(-c3ccc(-c4ccccc4O)cc3)csc2[nH]c1=O . Output IC50: 41.8 nM

Input C#Cc1cccc(Nc2ncnc3cc(OCCOC)c(OCCOC)cc23)c1 . Output IC50: > 2000 nM

----------
Please respond with reported IC50 for every item in the list.
Tested on: OMC-1;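 further: growth inhibition of the OMC-1 cell line, measured by a cell viability assay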
test: cells
Type: functional, cell-based, Homo sapiens
cond: Homo sapiens, OMC-1
Description: SANGER: Inhibition of human OMC-1 cell growth in a cell viability assay.

Input COc1cc2ncn(-c3cc(OCc4ccccc4S(C)(=O)=O)c(C#N)s3)c2cc1OC [GSK-319347A] . Output IC50: > 5000 nM

Input N#Cc1c(O)c2c(-c3ccc(-c4ccccc4O)cc3)csc2[nH]c1=O . Output IC50: > 1020 nM

Input CC(C)c1ccccc1Cc1cc(C(=O)Nc2ccc(S(=O)(=O)c3ccccc3C(C)(C)C)cc2)c(O)c(O)c1O . Output IC50: 565 nM

----------
Test system: COLO-741
test: cells
Assay type: functional, cell-based, Homo sapiens
cond: Homo sapiens, COLO-741
Description: SANGER: Inhibition of human COLO-741 cell growth in a cell viability assay.
pIC50: −log10 of the molar value.
recordedEndpoint: pIC50

Summary line: Nc1ccn([C@@H]2O[C@H](CO)[C@@H](O)C2(F)F)c(=O)n1 , COLO-741, reported pIC50 = 6.92

Summary line: CCN(CC)CCCCNc1ncc2cc(-c3cc(OC)cc(OC)c3)c(NC(=O)NC(C)(C)C)nc2n1 , COLO-741, reported pIC50 = < 5.70

Summary line: CC1(C)CNc2cc(NC(=O)c3cccnc3NCc3ccncc3)ccc21 , COLO-741, reported pIC50 = < 5.70

Summary line: Nc1cccc2c1CN(C1CCC(=O)NC1=O)C2=O (stereo unspecified) [LENALIDOMIDE] , COLO-741, reported pIC50 = < 5.30

Summary line: CC(C)CCN1c2nc(Nc3cc(F)c(O)c(F)c3)ncc2N(C)C(=O)C1C (stereo unspecified) , COLO-741, reported pIC50 = < 5.30

Summary line: Cc1cn(-c2cc(NC(=O)c3ccc(C)c(Nc4nccc(-c5cccnc5)n4)c3)cc(C(F)(F)F)c2)cn1 , COLO-741, reported pIC50 = < 5.70

----------
Please respond with reported pIC50 for every item in the list.
Tested on: MC116
test: cells
Assay type: functional, cell-based, Homo sapiens
cond: Homo sapiens, MC116
Description: SANGER: Inhibition of human MC116 cell growth in a cell viability assay.
For clarity, pIC50 is expressed as the negative log10 of concentration in mol/L.

Summary line: COc1cc(-c2nn([C@H]3CC[C@H](N4CCN(C(C)=O)CC4)CC3)c3ncnc(N)c23)ccc1NC(=O)c1cc2ccccc2n1C , MC116, reported pIC50 = 6.07

Summary line: CC(=O)O[C@H]1C(=O)[C@@]2(C)[C@H]([C@H](OC(=O)c3ccccc3)[C@]3(O)C[C@H](OC(=O)[C@H](O)[C@@H](NC(=O)c4ccccc4)c4ccccc4)C(C)=C1C3(C)C)[C@]1(OC(C)=O)CO[C@@H]1C[C@@H]2O , MC116, reported pIC50 = 8.54

Summary line: Cc1cc([N+](=O)[O-])ccc1NS(=O)(=O)c1cc(Cl)ccc1Cl , MC116, reported pIC50 = 5.50

Summary line: N[C@@H](CSC(c1ccccc1)(c1ccccc1)c1ccccc1)C(=O)O , MC116, reported pIC50 = 6.15

Summary line: COc1cc2ncn(-c3cc(OCc4ccccc4C(F)(F)F)c(C(N)=O)s3)c2cc1OC [GW843682X] , MC116, reported pIC50 = 7.44

Summary line: Nc1ccn([C@@H]2O[C@H](CO)[C@@H](O)C2(F)F)c(=O)n1 , MC116, reported pIC50 = 6.32
